Reference source for all entries: patent US20200030355A1

target: ERK2 (Homo sapiens)
Sequence (P28482 whole entry): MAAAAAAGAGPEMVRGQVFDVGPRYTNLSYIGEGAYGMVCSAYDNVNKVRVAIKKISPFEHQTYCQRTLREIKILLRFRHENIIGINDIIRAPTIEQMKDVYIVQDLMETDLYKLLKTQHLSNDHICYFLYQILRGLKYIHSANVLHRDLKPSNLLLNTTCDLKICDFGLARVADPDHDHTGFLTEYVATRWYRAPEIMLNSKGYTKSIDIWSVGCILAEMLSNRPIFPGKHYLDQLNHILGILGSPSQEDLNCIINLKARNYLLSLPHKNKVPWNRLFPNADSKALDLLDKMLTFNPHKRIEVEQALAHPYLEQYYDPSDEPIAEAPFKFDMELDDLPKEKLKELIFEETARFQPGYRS
reported-metric: IC50

INSERT INTO assay_data (structure_as_smiles, result) VALUES
  ('C=CC(=O)Nc1cc(C)ccc1Nc1nc(Nc2cc(OC)ncc2C)ncc1C(F)(F)F', '10 to 20 nM');

###

test system: SKM-1 cells; test: EPZ-5676 300 nM 7-day pre-treatment, then second compound 72 hours, ATPLite, IC50 shift (Example 6); type: cell-based, human; conditions: SKM-1 cells; 300 nM EPZ-5676 or DMSO 7-day pre-treatment, then 2nd compound 72 hours, ATPLite; Synergy = IC50 of 2nd compound decreased by 2-fold or more vs DMSO control
reported-metric: SKM-1 (summary of combination study: EPZ-5676 + 2nd compound)

INSERT INTO measurements (compound, result) VALUES
  ('CCN(CC)CCNC(=O)c1c(C)[nH]c(/C=C2\C(=O)Nc3ccc(F)cc32)c1C [Sunitinib Malate]', 2.0);
